Source of measurements: patent US5731155A

target_desc: STAT3 (Mus musculus)
Construct: Cytosolic homogenates of BaMR cells were precipitated with the biotinylated 12 amino acid peptides; endogenous in cells; host or cells: BaMR (BaF3 pre-B cells transfected with the IL-10 receptor) homogenates
Sequence (P42227 whole entry): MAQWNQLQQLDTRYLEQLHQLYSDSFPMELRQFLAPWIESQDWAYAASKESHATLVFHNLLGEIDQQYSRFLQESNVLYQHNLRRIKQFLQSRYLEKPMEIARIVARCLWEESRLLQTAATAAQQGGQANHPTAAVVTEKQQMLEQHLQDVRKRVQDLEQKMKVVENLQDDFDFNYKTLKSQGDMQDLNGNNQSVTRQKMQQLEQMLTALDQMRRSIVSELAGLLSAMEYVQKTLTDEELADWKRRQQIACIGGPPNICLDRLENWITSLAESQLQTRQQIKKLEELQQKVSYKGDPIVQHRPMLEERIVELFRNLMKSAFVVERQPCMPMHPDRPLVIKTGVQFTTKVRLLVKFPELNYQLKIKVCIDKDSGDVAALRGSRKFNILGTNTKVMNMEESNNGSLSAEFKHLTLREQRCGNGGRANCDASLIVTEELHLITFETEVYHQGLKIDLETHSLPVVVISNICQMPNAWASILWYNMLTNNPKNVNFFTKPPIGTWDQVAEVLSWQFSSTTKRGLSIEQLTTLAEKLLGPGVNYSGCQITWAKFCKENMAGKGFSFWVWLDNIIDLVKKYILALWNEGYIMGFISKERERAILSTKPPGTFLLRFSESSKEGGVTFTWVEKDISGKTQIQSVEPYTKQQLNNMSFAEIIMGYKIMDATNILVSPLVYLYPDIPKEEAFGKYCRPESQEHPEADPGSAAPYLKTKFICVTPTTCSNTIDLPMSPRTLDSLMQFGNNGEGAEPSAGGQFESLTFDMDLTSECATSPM
measurement_description: Precipitation of STAT3 from BaMR cytosolic homogenates with biotinylated IL-10 receptor peptides
Assay type: binding
measurement_conditions: biotinylated 12 amino acid peptides, BaMR cytosolic homogenates
Where a SMILES comes first, the peptide text is derived from it. [ ]: non-standard residue; d: D form. The star is where a group is joined. Biotin = O=C1N[C@H]2[C@H](CS[C@H]2CCCCC(=O)*)N1; pY = N[C@@H](Cc1ccc(OP(=O)(O)O)cc1)C(=O)O; Ahx = NCCCCCC(=O)O
readout: precipitation of / binding to the 92 kD STAT3 protein

Solved cases (4 shown):
compound | value
CC(C)C[C@H](NC(=O)[C@@H](NC(=O)[C@H](Cc1c[nH]cn1)NC(=O)[C@@H]1CCCN1C(=O)[C@H](CCCCN)NC(=O)[C@H](CC(=O)O)NC(=O)[C@H](Cc1ccc(OP(=O)(O)O)cc1)NC(=O)CNC(=O)[C@H](Cc1ccccc1)NC(=O)[C@H](CO)NC(=O)[C@@H](NC(=O)CCCCCNC(=O)CCCC[C@@H]1SC[C@@H]2NC(=O)N[C@@H]21)[C@@H](C)O)C(C)C)C(=O)N[C@H](C(=O)O)C(C)C [SEQ ID NO:4, Biotin-TSFGY-PO4 DKPHVLV] ({Biotin-Ahx}-TSFG[pY]DKPHVLV-OH) | no binding
C[C@@H](O)[C@H](NC(=O)CCCCCNC(=O)CCCC[C@@H]1SC[C@@H]2NC(=O)N[C@@H]21)C(=O)N[C@@H](Cc1ccccc1)C(=O)N[C@@H](CCC(N)=O)C(=O)NCC(=O)N[C@@H](Cc1ccc(O)cc1)C(=O)N[C@@H](CCC(N)=O)C(=O)N[C@@H](CCCCN)C(=O)N[C@@H](CCC(N)=O)C(=O)N[C@H](C(=O)N[C@@H](CCCNC(=N)N)C(=O)N[C@@H](Cc1c[nH]c2ccccc12)C(=O)N[C@@H](CCCCN)C(=O)O)[C@@H](C)O [SEQ ID NO:28] ({Biotin-Ahx}-TFQGYQKQTRWK-OH) | no binding
CC(C)C[C@H](NC(=O)[C@H](CC(=O)O)NC(=O)[C@H](CO)NC(=O)[C@H](C)NC(=O)[C@H](CC(=O)O)NC(=O)[C@H](CCC(N)=O)NC(=O)[C@@H](NC(=O)[C@H](Cc1ccc(OP(=O)(O)O)cc1)NC(=O)[C@H](CCCCN)NC(=O)[C@@H]1CCCN1C(=O)[C@H](CCC(N)=O)NC(=O)CNC(=O)CCCCCNC(=O)CCCC[C@@H]1SC[C@@H]2NC(=O)N[C@@H]21)[C@@H](C)O)C(=O)O [SEQ ID NO:27] ({Biotin-Ahx}-GQPK[pY]TQDASDL-OH) | no binding
CC(C)C[C@H](NC(=O)CCCCCNC(=O)CCCC[C@@H]1SC[C@@H]2NC(=O)N[C@@H]21)C(=O)N[C@@H](C)C(=O)N[C@@H](C)C(=O)NCC(=O)N[C@@H](Cc1ccc(O)cc1)C(=O)N[C@@H](CC(C)C)C(=O)N[C@@H](CCCCN)C(=O)N[C@@H](CCC(N)=O)C(=O)N[C@@H](CCC(=O)O)C(=O)N[C@@H](CO)C(=O)N[C@@H](CCC(N)=O)C(=O)NCC(=O)O [SEQ ID NO:29] ({Biotin-Ahx}-LAAGYLKQESQG-OH) | no binding

Now turn to the next compound.
Request: What value of precipitation of / binding to the 92 kD STAT3 protein has been recorded for this entry: CC(C)C[C@H](NC(=O)[C@H](CCC(N)=O)NC(=O)[C@H](CCC(N)=O)NC(=O)CCCCCNC(=O)CCCC[C@@H]1SC[C@@H]2NC(=O)N[C@@H]21)C(=O)NCC(=O)N[C@@H](Cc1ccc(OP(=O)(O)O)cc1)C(=O)N[C@@H](Cc1c[nH]cn1)C(=O)N[C@@H](CCC(N)=O)C(=O)N[C@@H](CC(=O)O)C(=O)N[C@@H](CCC(N)=O)C(=O)N[C@@H](CC(=O)O)C(=O)N[C@@H](CC(=O)O)C(=O)N[C@@H](CO)C(=O)O [SEQ ID NO:26] ({Biotin-Ahx}-QQLG[pY]HQDQDDS-OH)
Response: no binding
